- Test system: SF-268 CNS
- protocol summary: NCI tumour cell line growth inhibition, 48 h
Parameter TGI: see the listing below.

[
  {
    "compound": "COc1ccc(-c2nc(-c3ccccn3)c(-c3ccccn3)n2CC(C)C)cc1OC1CCCC1",
    "result units": "µM",
    "inequality sign": ">",
    "TGI": 165
  },
  {
    "compound": "Cc1cn([C@H]2C[C@H](O)[C@@H](CO)O2)c(=O)nc1N",
    "result units": "µM",
    "inequality sign": ">",
    "TGI": 100
  },
  {
    "compound": "O=C(CC(c1ccccc1)C(C(=O)c1ccncc1)C(CC(=O)c1ccncc1)c1ccccc1)c1ccncc1 (stereo not given)",
    "result units": "µM",
    "inequality sign": ">",
    "TGI": 100
  },
  {
    "compound": "N#Cc1ccc(C2Oc3ccc(Cl)cc3C=C2[N+](=O)[O-])cc1 (stereo not given)",
    "result units": "µM",
    "inequality sign": "=",
    "TGI": 4.16
  },
  {
    "compound": "COc1cc(C(=O)O/N=C(\\N)Cc2cccc3ccccc23)cc(OC)c1OC",
    "result units": "µM",
    "inequality sign": "=",
    "TGI": 22.9
  }
]

====

Measured TGI, listed per entry.
- System: MDA-MB-231 breast
- protocol summary: NCI tumour cell line growth inhibition, 48 h
measurement type: TGI

[
  {
    "molecule": "O=C(Nc1ccc(Nc2ccncc2)cc1)c1ccc(Nc2ccnc3ccc([N+](=O)[O-])cc23)cc1[N+](=O)[O-]",
    "observed value": "> 61.8 µM"
  },
  {
    "molecule": "CCN(CC)C1Oc2cc3c(cc2C(c2cccc(OC)c2O)C1C)OCO3 (stereo unspecified)",
    "observed value": "> 49.7 µM"
  },
  {
    "molecule": "COc1cc2[nH]c(=O)c3cc(C)cc4c(Cl)nc(c1OC)c2c43",
    "observed value": "> 100 µM"
  },
  {
    "molecule": "CC(=O)O[C@H]1C[C@](C)(O)[C@@]23CC([C@@H](OC(=O)C(C)(C)O)[C@@H](OC(C)=O)C2(COC(=O)c2ccccc2)[C@H]1OC(C)=O)C(C)(C)O3 (stereo partly specified)",
    "observed value": "> 100 µM"
  },
  {
    "molecule": "CC[C@H]1CN(C)[C@H]2Cc3c([nH]c4ccccc34)C(=O)C[C@H]1C2C(=O)OC (stereo partly specified)",
    "observed value": "> 100 µM"
  },
  {
    "molecule": "CC1CCOc2ccc(cc2)C=Nc2ccc(cc2)-c2ccc(cc2)N=Cc2ccc(cc2)OCC1 (stereo unspecified)",
    "observed value": "> 100 µM"
  },
  {
    "molecule": "NCCS(=O)(=O)O",
    "observed value": "> 100 µM"
  },
  {
    "molecule": "C=CCOCn1ccc(N)nc1=O",
    "observed value": "> 100 µM"
  },
  {
    "molecule": "COc1cc([C@@H]2c3cc4c(cc3[C@@H](c3c(O)cc(O)c5c3O[C@H](c3ccc(O)c(O)c3)[C@H](OC(=O)c3cc(O)c(O)c(O)c3)C5)[C@H]3COC(=O)[C@H]23)OCO4)cc(OC)c1O",
    "observed value": "> 100 µM"
  },
  {
    "molecule": "COc1ccc(-c2nc(-c3cnccn3)n(Cc3ccccc3)n2)cc1",
    "observed value": "> 100 µM"
  },
  {
    "molecule": "COc1ccc(-c2nnc(SCC(=O)Nc3ccc(C(=O)/C=C/c4cc(OC)c(OC)c(OC)c4)cc3)n2-c2ccccc2)cc1OC",
    "observed value": "> 10 µM"
  }
]

====

Reported TGI values follow for various compounds
- Test system: OVCAR-8 ovarian
- protocol summary: NCI tumour cell line growth inhibition, 48 h

[
  {
    "compound": "CCOC(OCC)C(CC)[Se]c1ccccc1 (centres undefined)",
    "TGI": "> 100 µM"
  },
  {
    "compound": "CCOC1NC(/N=C/c2ccc(OC)cc2)=C(C#N)C1C#N (centres undefined)",
    "TGI": "> 100 µM"
  },
  {
    "compound": "CN(C)CC1CCCCCC(Br)C1=O (centres undefined)",
    "TGI": "32.8 µM"
  },
  {
    "compound": "CCOC(=O)Cn1c(-c2nonc2NC(=O)c2ccccc2F)nc2ccccc21",
    "TGI": "> 60.1 µM"
  },
  {
    "compound": "O=C(Nc1ccc(Nc2ccncc2)cc1)c1ccc(Nc2ccnc3ccc([N+](=O)[O-])cc23)cc1[N+](=O)[O-]",
    "TGI": "45.2 µM"
  },
  {
    "compound": "CC[C@H](C)[C@H](NC(=O)NC(C)(C)C)C(=O)N(C)[C@H](C[C@@H](OC(C)=O)c1nc(C(=O)N[C@@H](Cc2ccccc2)C[C@H](C)C(=O)OC)cs1)C(C)C",
    "TGI": "> 25 µM"
  },
  {
    "compound": "CN1C(=O)CCC1c1ccc2c(c1)oc(=O)n2C (centres undefined)",
    "TGI": "> 100 µM"
  },
  {
    "compound": "CC(C)(C)OC(=O)n1c(Cl)c(C=O)c2ccccc21",
    "TGI": "> 100 µM"
  },
  {
    "compound": "N#Cc1cc([N+](=O)[O-])ccc1NC(=O)C(=O)C(C(=O)c1ccc2ccccc2c1)C1OCc2ccccc21 (centres undefined)",
    "TGI": "20.9 µM"
  },
  {
    "compound": "CC(C)CN1CC(C)C(=O)NC1=O (centres undefined)",
    "TGI": "> 100 µM"
  },
  {
    "compound": "Oc1ccc(Oc2cnc3cc(Cl)ccc3n2)cc1",
    "TGI": "> 100 µM"
  },
  {
    "compound": "COc1ccc(/C=C\\c2cc(OC)c(OC)c(OC)c2)cc1OCC(=O)Nc1nc2ccccc2s1",
    "TGI": "> 100 µM"
  },
  {
    "compound": "COc1cc([C@@H]2c3cc4c(cc3[C@@H](c3c(O)cc(O)c5c3O[C@H](c3ccc(O)c(O)c3)[C@H](OC(=O)c3cc(O)c(O)c(O)c3)C5)[C@H]3COC(=O)[C@H]23)OCO4)cc(OC)c1O",
    "TGI": "> 100 µM"
  },
  {
    "compound": "COC1C(CO)OC(n2c3c(Cl)cccc3c3c4c(c5c6cccc(Cl)c6[nH]c5c32)C(=O)NC4=O)C(O)C1O (centres undefined)",
    "TGI": "16.6 µM"
  },
  {
    "compound": "O=C(CCN1CCCC1)Nc1ccc2c(NCCc3ccccc3)c3ccccc3nc2c1",
    "TGI": "2.72 µM"
  },
  {
    "compound": "CN(C)CC1CCCc2ccccc2C1=O (centres undefined)",
    "TGI": "4.29 µM"
  },
  {
    "compound": "O=S1(=O)OCCCOS(=O)(=O)C1(Br)Br",
    "TGI": "> 100 µM"
  },
  {
    "compound": "CC(O)C(NC(=O)c1ccccc1)C(=O)N(Cc1ccccc1)Cc1ccccc1 (centres undefined)",
    "TGI": "> 100 µM"
  },
  {
    "compound": "O=c1c2cc(I)ccc2nc(SCc2nnco2)n1Cc1ccccc1",
    "TGI": "> 100 µM"
  }
]

====

- System: SN12C renal
- protocol summary: NCI tumour cell line growth inhibition, 48 h
measurement type: TGI

[
  {
    "structure smiles": "NC(=O)c1sc(-n2cnc3ccc(C(F)(F)F)cc32)cc1OCc1ccccc1Br",
    "target system": "SN12C renal",
    "measurement type": "TGI",
    "observed value": "> 25 µM"
  },
  {
    "structure smiles": "COc1ccc(N=Nc2c(-c3ccccc3)nn(C(=O)CC(=O)Nc3ccccc3Cl)c2-c2ccccc2)cc1",
    "target system": "SN12C renal",
    "measurement type": "TGI",
    "observed value": "> 100 µM"
  },
  {
    "structure smiles": "CCN(CC)c1ccc2cc(C(N)=O)c(=Nc3ccc(F)cc3)oc2c1",
    "target system": "SN12C renal",
    "measurement type": "TGI",
    "observed value": "> 100 µM"
  }
]

====

- System: LOX IMVI melanoma
- protocol summary: NCI tumour cell line growth inhibition, 48 h
Where a SMILES comes first, the peptide text is derived from it. Side-chain parts run from the residue outwards. The star is where a group is joined. Cbz = O=C(OCc1ccccc1)*; Boc = CC(C)(C)OC(=O)*
TGI below 20 µM gives no; TGI at or above it gives yes.

[
  {
    "compound": "CCCC(=O)c1ccc(=O)n(C)c1",
    "qualitative label": "yes"
  },
  {
    "compound": "O=C(Cn1c(C(=O)c2ccc(Cl)cc2)nc(-c2ccccc2)c1-c1ccccc1)c1ccc(Cl)cc1",
    "qualitative label": "yes"
  },
  {
    "compound": "CC(O)C(NC(=O)c1ccccc1)C(=O)N(Cc1ccccc1)Cc1ccccc1 (stereo not given)",
    "qualitative label": "yes"
  },
  {
    "compound": "O=S1c2ccccc2NC(c2ccc3ccccc3c2)CC1c1ccccc1 (stereo not given)",
    "qualitative label": "yes"
  },
  {
    "compound": "C=CCOCn1ccc(N)nc1=O",
    "qualitative label": "yes"
  },
  {
    "compound": "Cn1c(COC(=O)NC2CCCCC2)c(COC(=O)NC2CCCCC2)c2ccc3cc(C=O)ccc3c21",
    "qualitative label": "yes"
  },
  {
    "compound": "CC(C)(C)OC(=O)NC(CCCCNC(=O)CNC(=O)OCc1ccccc1)C(=O)NC(CCCCNC(=O)CNC(=O)OCc1ccccc1)C(=O)NC(CCCCNC(=O)CNC(=O)OCc1ccccc1)C(=O)NC(CCCCNC(=O)CNC(=O)OCc1ccccc1)C(=O)O (stereo not given) (Boc-K([Gly-Cbz])K([Gly-Cbz])K([Gly-Cbz])K([Gly-Cbz])-OH; configuration not given here)",
    "qualitative label": "yes"
  },
  {
    "compound": "O=C(NNS(=O)(=O)c1ccccc1)c1csc(NC(=S)NC2CCCCC2)n1",
    "qualitative label": "yes"
  },
  {
    "compound": "COc1ccc(-c2nnc(SCC(=O)Nc3ccc(C(=O)/C=C/c4cc(OC)c(OC)c(OC)c4)cc3)n2-c2ccccc2)cc1OC",
    "qualitative label": "no"
  },
  {
    "compound": "CCSc1ccc([C@@H]2[C@@H](N)C(=O)N2c2cc(OC)c(OC)c(OC)c2)cc1",
    "qualitative label": "yes"
  },
  {
    "compound": "OCCn1cc(-c2cnc3nnn(Cc4ccc5ncccc5c4)c3n2)cn1",
    "qualitative label": "yes"
  },
  {
    "compound": "COc1cc(C(=O)O/N=C(\\N)Cc2cccc3ccccc23)cc(OC)c1OC",
    "qualitative label": "no"
  },
  {
    "compound": "CN(C)c1ccc2cc3ccc(N(C)C)cc3nc2c1",
    "qualitative label": "no"
  },
  {
    "compound": "O=C(/C=C/c1ccccc1O)c1cccc2ccccc12",
    "qualitative label": "yes"
  },
  {
    "compound": "COC1=CC(=O)c2nc3ccccc3c3ccnc1c23",
    "qualitative label": "yes"
  }
]
